- Tested on: CaCo-2 cells (colorectal adenocarcinoma)
- Assay procedure: MTT cytotoxicity assay, CaCo-2
- Format: cell-based, human
- Test settings: IC50 for normal cell line (HaCaT)/IC50 CaCo-2

Compound: S=C(NCCc1ccccc1)NCCN(CCNC(=S)NCCc1ccccc1)C(=S)NCCc1ccccc1 [Compound 6]
Experimental system: CaCo-2 cells (colorectal adenocarcinoma)
SI (Selectivity Index): 1.02
//
Compound: Fc1ccc(NC(=S)NCCN(CCNC(=S)Nc2ccc(F)c(Cl)c2)C(=S)Nc2ccc(F)c(Cl)c2)cc1Cl [Compound 5]
Experimental system: CaCo-2 cells (colorectal adenocarcinoma)
SI (Selectivity Index): 1.05
//
Compound: COc1cccc2c1C(=O)c1c(O)c3c(c(O)c1C2=O)C[C@@](O)(C(=O)CO)C[C@@H]3O[C@H]1C[C@H](N)[C@H](O)[C@H](C)O1 [Doxorubicin, reference compound]
Experimental system: CaCo-2 cells (colorectal adenocarcinoma)
SI (Selectivity Index): 2.06
//
Compound: S=C(NCCN(CCNC(=S)Nc1ccc(Br)cc1)C(=S)Nc1ccc(Br)cc1)Nc1ccc(Br)cc1 [Compound 4]
Experimental system: CaCo-2 cells (colorectal adenocarcinoma)
SI (Selectivity Index): 1.12
//
Compound: S=C(NCCN(CCNC(=S)Nc1ccc(Cl)cc1)C(=S)Nc1ccc(Cl)cc1)Nc1ccc(Cl)cc1 [Compound 3]
Experimental system: CaCo-2 cells (colorectal adenocarcinoma)
SI (Selectivity Index): 1.08

---

- Tested on: A549 cells (epithelial lung carcinoma)
- Assay procedure: MTT cytotoxicity assay, A549
- Assay type: cell-based, human
- Test settings: A549, MTT, mean ± SD
- Source text: All derivatives of bis(2-aminoethyl)amine were screened for their in vitro cytotoxic activity against a panel of human cancer cell lines, namely colorectal adenocarcinoma (CaCo-2), epithelial lung carcinoma (A549), and melanoma (HTB-140), which is contrary to normal (HaCaT) cell lines, by using the MTT method. Description related to conducted biological studies including cell culture, suitable conditions, and methodology was presented in our previous paper.

Compound: N.N.[Cl][Pt][Cl] [Cisplatin, reference compound]
IC50, nM: 1950

---

- Tested on: HTB-140 cells (melanoma)
- Assay procedure: MTT cytotoxicity assay, HTB-140
- Assay type: cell-based, human
- Test settings: HTB-140, MTT, mean ± SD
pIC50: −log10 of the molar value.

Compound: N.N.[Cl][Pt][Cl] [Cisplatin, reference compound]
Experimental system: HTB-140 cells (melanoma)
pIC50: 5.95

---

- System: HTB-140 cells (melanoma)
- Assay procedure: MTT cytotoxicity assay, HTB-140
- Type: cell-based, human
- Test settings: Homo sapiens; HTB-140, MTT, mean ± SD

Sample smiles: COc1ccc(NC(=S)N(CCNc2nnnn2-c2ccc(OC)cc2)CCNc2nnnn2-c2ccc(OC)cc2)cc1
Result qualifier: >
IC50 [µM]: 100
--
Sample smiles: S=C(NCCN(CCNC(=S)Nc1ccccc1)C(=S)Nc1ccccc1)Nc1ccccc1
Result qualifier: >
IC50 [µM]: 100
--
Sample smiles: S=C(NCCN(CCNC(=S)Nc1ccc(Cl)cc1)C(=S)Nc1ccc(Cl)cc1)Nc1ccc(Cl)cc1
Result qualifier: =
IC50 [µM]: 22.6
--
Sample smiles: Fc1ccc(NC(=S)NCCN(CCNC(=S)Nc2ccc(F)c(Cl)c2)C(=S)Nc2ccc(F)c(Cl)c2)cc1Cl
Result qualifier: =
IC50 [µM]: 14.8
